# target: Human TOP2A (Homo sapiens, UniProt P11388)
# Construct: purchased TopoGEN (Buena Vista, CO)
# Sequence (P11388 whole entry): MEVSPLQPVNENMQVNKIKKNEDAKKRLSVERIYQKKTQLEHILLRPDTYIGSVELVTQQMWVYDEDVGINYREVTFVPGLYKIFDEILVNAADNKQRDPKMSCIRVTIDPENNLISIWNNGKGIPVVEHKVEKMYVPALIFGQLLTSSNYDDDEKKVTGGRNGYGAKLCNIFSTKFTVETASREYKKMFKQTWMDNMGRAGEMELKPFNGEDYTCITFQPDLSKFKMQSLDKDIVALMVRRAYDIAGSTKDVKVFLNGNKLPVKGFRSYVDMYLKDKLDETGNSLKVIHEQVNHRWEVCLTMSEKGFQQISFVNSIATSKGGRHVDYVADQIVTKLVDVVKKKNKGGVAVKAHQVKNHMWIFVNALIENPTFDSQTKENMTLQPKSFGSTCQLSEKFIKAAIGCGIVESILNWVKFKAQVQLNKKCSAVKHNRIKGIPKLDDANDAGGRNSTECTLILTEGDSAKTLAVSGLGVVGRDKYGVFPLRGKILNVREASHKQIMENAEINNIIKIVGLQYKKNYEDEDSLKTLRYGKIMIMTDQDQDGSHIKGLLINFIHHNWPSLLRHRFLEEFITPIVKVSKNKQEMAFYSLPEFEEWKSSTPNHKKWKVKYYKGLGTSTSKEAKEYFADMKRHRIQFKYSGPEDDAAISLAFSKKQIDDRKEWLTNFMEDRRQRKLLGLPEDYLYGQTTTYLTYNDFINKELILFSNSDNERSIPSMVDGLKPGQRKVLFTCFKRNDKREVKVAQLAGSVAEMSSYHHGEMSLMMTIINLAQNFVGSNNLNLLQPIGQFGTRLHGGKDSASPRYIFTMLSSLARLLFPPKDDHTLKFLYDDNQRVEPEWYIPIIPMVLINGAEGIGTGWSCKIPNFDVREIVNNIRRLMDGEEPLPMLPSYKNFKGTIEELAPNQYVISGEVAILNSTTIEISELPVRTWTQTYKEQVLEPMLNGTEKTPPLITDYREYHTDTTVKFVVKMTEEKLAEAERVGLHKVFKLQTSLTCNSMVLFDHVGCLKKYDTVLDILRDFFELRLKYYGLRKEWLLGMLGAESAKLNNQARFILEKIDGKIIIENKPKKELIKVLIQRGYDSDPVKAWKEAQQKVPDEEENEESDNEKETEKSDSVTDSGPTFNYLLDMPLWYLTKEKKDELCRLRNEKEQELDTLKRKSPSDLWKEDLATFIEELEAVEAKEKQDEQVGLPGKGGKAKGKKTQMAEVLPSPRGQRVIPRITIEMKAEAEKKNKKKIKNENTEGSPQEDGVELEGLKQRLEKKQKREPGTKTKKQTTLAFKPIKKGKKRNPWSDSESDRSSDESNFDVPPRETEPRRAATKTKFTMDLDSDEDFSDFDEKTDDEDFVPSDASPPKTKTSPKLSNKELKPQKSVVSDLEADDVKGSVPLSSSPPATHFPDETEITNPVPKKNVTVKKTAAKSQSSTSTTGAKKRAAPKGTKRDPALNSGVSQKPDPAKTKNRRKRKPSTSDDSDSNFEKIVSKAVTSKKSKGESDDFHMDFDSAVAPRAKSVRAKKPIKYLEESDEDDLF
# experiment.notes: TOP2A DNA decatenation assay (kDNA, agarose gel)
# Type: biochemical
# stated.conditions: Table 1; decatenation dose response; read-out: % Inhibition TOP2A (IC50 Values)
Consider the following molecules and their measured pIC50 readings.
Recall that pIC50 is obtained by taking minus log10 of the concentration measured in molar.

Previously resolved entries follow.
Requested field: pIC50. Item: CC(=O)Nc1ccc2c(-c3cccc(F)c3)ccnc2c1O [Analog 29]
5.11

So what does the record say about pIC50 for CC(=O)Nc1ccc2c(-c3cccc(C(F)(F)F)c3)ccnc2c1O [Analog 31] ?
5.47

Now, please, on to the next molecule.
Value lookup for pIC50; key = CC(=O)Nc1ccc2c(-c3cc(C(F)(F)F)ccc3O)ccnc2c1O [Analog 37]
5.05

----------
# target: Human TOP2A (Homo sapiens)
# Construct: purchased TopoGEN (Buena Vista, CO)
# experiment.notes: TOP2A DNA decatenation assay (kDNA, agarose gel)
# Format: biochemical
# stated.conditions: 1 h; Table 1; decatenation, 30 μM fixed concentration; read-out: % Inhibition TOP2A (30 μM)
endpoint.label: inhibition at 30 µM (%)
The response must be a number in % with no trailing unit.

// known answers, use as guide
Any idea what inhibition at 30 µM was measured for `O=C(CCN1CCOCC1)Nc1ccc2c(-c3cc(F)ccc3O)ccnc2c1O` ?
90

Entry `CC(=O)Nc1ccc2c(-c3ccsc3)ccnc2c1O` has what inhibition at 30 µM?
92

More entries:
I have this compound here, `CC(=O)Nc1ccc2c(-c3ccc(C(F)(F)F)cc3)ccnc2c1O` , and I need its recorded inhibition at 30 µM.
97

Quick one: inhibition at 30 µM for `O=C(CN1CCOCC1)Nc1ccc2c(-c3cc4ccccc4o3)ccnc2c1O` ?
100
